Attribute Measured: melting point

Solved cases (5 shown):
{"columns": ["Compound", "Result"],
 "data": [
  ["Cc1c(C2=NNC(=O)SC2C)ccc2c1C(C)(C)C(=O)N2 (centres undefined)", "279 °C"],
  ["CC(C)NC(=O)c1c(OS(C)(=O)=O)cccc1C(=O)O", "56 to 59 °C"],
  ["O=C(O)c1ccc(OCCNC(=O)C2Cc3ccccc3N2S(=O)(=O)c2ccc(-c3cc(C(F)(F)F)ccc3Cl)cc2)cc1Cl (centres undefined)", "106 to 112 °C"],
  ["Cc1ccc(C(Cl)=NNc2ccccc2)cc1", "133 to 134 °C"],
  ["Cc1cnc(CNC(=O)c2sc(N3CCN(CC4CC4)C3=O)nc2C)cn1", "161 to 163 °C"]
]}

query: Tell us which melting point value is on record for CC(C)C[C@H](NC(=O)CCCc1ccccc1)C(=O)N[C@@H](C(C)C)[C@@H](O)c1c(-c2ccccc2)c1=O
result: 91 to 96 °C

query: Tell us which melting point value is on record for CCn1c(C)nc2cc(C(F)(F)F)c(Cl)c([N+](=O)[O-])c21
result: 114 to 116 °C

###

melting point values by entry

Solved cases (3 shown):
{"columns": ["Molecule", "melting point"],
 "data": [
  ["CC(C)(C)c1cc(Sc2n[nH]c(=S)s2)cc(C(C)(C)C)c1O", "181 to 186 °C"],
  ["NS(=O)(=O)c1cc2cc[nH]c(=O)c2s1", "295 to 297 °C"],
  ["Cc1cc(-c2nnn(C)n2)cc(C)c1OCCCCc1cc2cccnc2[nH]1", "147 to 150 °C"]
]}

Consider now this further molecule.
query: Tell us which melting point value is on record for COc1ccc(C=O)cc1OC1CC=CC1
result: 60 to 62 °C

###

melting point values by entry

Solved cases (3 shown):
{"columns": ["Molecule", "Result"],
 "data": [
  ["COc1ccc2nc(COc3ccc(NC(C)=O)cc3)sc2c1", "145 to 147 °C"],
  ["CCCCCCCC(=O)NCCCCCO", "62 to 63 °C"],
  ["CCOC(=O)c1c(CC)nn2ccc3oc(C)cc3c12", "89 to 90 °C"]
]}

query: Tell us which melting point value is on record for CC(c1ccc(Cl)cc1)N1Cc2sc3ncn(CCN4CCN(c5cccc6ccccc56)CC4)c(=O)c3c2C1 (stereo not given)
result: 149 °C

query: Tell us which melting point value is on record for N#Cc1c(N2CCc3ccccc3CC2)nc(C2CC2)n(CC(F)(F)F)c1=O
result: 116 to 118 °C

###

Attribute Measured: melting point

Solved cases (4 shown):
{"columns": ["Compound", "melting point"],
 "data": [
  ["CCCc1c(OCCCCCCC2(C)CC(=O)c3ccc(OCC(=O)O)c(CCC)c3O2)ccc(C(C)=O)c1O (stereo not given)", "120 to 125 °C"],
  ["CCCCCCCCCCCCCCCCCCOCCC(=O)COCc1ccccc1", "33 to 34 °C"],
  ["COc1ccc(-c2c3c(cc4ccc5c(c24)OCO5)C(=O)NC3)cc1", "266 to 269 °C"],
  ["CC(C)(C)c1cc(I)c2oncc2c1", "106 to 109 °C"]
]}

query: Tell us which melting point value is on record for CCCCCCCCCCCCC(=O)CC(O)Cc1ccccc1 (stereo not given)
result: 40 to 43 °C
